Target: Prostaglandin E2 receptor EP3 subtype (Homo sapiens, UniProt P43115)
Sequence (P43115 whole entry): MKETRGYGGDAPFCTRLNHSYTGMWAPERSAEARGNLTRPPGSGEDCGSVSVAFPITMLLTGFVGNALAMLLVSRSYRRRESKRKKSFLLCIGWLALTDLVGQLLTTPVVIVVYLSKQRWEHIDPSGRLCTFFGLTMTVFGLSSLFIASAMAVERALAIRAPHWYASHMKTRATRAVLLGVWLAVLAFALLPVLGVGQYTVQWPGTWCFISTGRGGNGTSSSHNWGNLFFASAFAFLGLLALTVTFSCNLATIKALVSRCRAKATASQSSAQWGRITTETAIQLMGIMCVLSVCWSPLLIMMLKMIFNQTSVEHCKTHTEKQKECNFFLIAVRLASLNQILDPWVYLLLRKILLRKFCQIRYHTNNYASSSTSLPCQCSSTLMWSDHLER
Assay: Agonist activity at EP3 receptor (unknown origin)
pEC50: −log10 of the molar value.
measurement.type: pEC50

Ask | Using the record for Cc1c(CC(=O)O)c2cccnc2n1Cc1ccc(S(C)(=O)=O)cc1C(F)(F)F , report its pEC50.
Reply | < 5.00

---

Can you tell me pIC50 for the items I'm about to list?
Biological target: Prostaglandin D2 receptor 2 (Homo sapiens, UniProt Q9Y5Y4)
Sequence (Q9Y5Y4 whole entry): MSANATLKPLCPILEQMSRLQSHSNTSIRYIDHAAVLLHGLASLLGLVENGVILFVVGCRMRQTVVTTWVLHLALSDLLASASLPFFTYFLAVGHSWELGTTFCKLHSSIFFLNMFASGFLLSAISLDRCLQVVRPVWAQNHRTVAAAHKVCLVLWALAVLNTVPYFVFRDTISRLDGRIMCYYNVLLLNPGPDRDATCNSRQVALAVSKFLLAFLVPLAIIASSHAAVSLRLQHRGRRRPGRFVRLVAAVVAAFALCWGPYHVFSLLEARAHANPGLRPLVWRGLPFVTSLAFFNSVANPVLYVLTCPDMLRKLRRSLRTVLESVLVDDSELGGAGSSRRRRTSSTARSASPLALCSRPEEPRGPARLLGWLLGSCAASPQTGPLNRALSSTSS
Test: Antagonist activity at DP2 receptor in CD4-positive human TH2 cells assessed as inhibition of DK-PGD2-induced IL-5 production after 6 to 8 hrs
Entry type: numeric. Quantity: pIC50, the -log10 of concentration in molar units.

Ask | Looking for the measured pIC50 of Cc1c(CC(=O)O)c2cccnc2n1Cc1ccc(S(C)(=O)=O)cc1C(F)(F)F , can you help?
Reply | 8.59

Ask | Which pIC50 is listed for Cc1c(CC(=O)O)c2cccnc2n1Cc1ccc(S(C)(=O)=O)cc1 ?
Reply | 7.23

---

Biological target: Prostaglandin D2 receptor 2 (Homo sapiens)
Assay: Displacement of [3H]NVP-QAW039 from human DP2 receptor expressed in CHO cell membranes by TopCount scintillation assay
Assign pKd to each entry below.
Please treat pKd as minus the base-10 logarithm of the molar concentration.

Ask | Param item = Cc1c(CC(=O)O)c2cccnc2n1Cc1ccc(S(C)(=O)=O)cc1 ; retrieve measured pKd.
Reply | 7.82

Ask | # lookup: pKd of Cc1c(CC(=O)O)c2ccccc2n1Cc1ccc(S(C)(=O)=O)cc1
Reply | 7.60

Ask | Reported pKd, compound Cc1c(CC(=O)O)c2cccnc2n1Cc1ccc(S(C)(=O)=O)cc1C(F)(F)F : ____
Reply | 8.99

Ask | Bench note: what pKd did CCS(=O)(=O)c1ccc(Cn2c(C)c(CC(=O)O)c3cccnc32)c(Cl)c1 show?
Reply | 8.72

---

Biological target: Prostaglandin D2 receptor (Homo sapiens, UniProt Q13258)
Sequence (Q13258 whole entry): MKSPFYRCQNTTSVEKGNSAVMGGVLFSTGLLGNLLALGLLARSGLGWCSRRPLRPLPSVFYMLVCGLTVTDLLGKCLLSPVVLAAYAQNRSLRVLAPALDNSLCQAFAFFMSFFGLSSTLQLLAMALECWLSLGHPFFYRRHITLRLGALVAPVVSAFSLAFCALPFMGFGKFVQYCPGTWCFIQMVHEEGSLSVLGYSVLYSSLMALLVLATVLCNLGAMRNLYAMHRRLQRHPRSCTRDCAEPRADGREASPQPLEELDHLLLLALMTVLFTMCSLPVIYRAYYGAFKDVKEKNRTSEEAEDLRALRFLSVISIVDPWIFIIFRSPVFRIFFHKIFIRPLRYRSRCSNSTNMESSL
Experiment: Antagonist activity at DP1 receptor (unknown origin)
measurement.type: IC50

Ask | I have this molecule here, Cc1c(CC(=O)O)c2cccnc2n1Cc1ccc(S(C)(=O)=O)cc1C(F)(F)F , and I need its recorded IC50.
Reply | > 10 µM
